Reference for the values: patent US20240148821A1

molecular target: protein-protein interaction between Kras and SOS1 (biotin-tagged human Kras loaded with GDP, His-tagged human SOS1) (Homo sapiens (Human), UniProt P01116, G12D); experiment: Protein-protein interaction inhibition between Kras and SOS1 (KrasG12D-SOS PPI) using AlphaScreen; format: biochemical; conditions: AlphaScreen; biotin-tagged human Kras loaded with GDP, His-tagged human SOS1; read-out: KRAS G12D-SOS PPI IC50
Bridge positions count the residues as written; N and C are the ends. Square brackets hold non-standard residues; d marks the D form. Peptide text beside a SMILES is read from it. * marks the point of attachment. hPhe(3-Cl-4-CF3) = N[C@@H](CCc1ccc(C(F)(F)F)c(Cl)c1)C(=O)O; hPhe(4-CF3) = N[C@@H](CCc1ccc(C(F)(F)F)cc1)C(=O)O; NMePhe(4-Cl) = CN[C@@H](Cc1ccc(Cl)cc1)C(=O)O; NMeAla(cPent) = CN[C@@H](CC1CCCC1)C(=O)O; NMe3Pal = CN[C@@H](Cc1cccnc1)C(=O)O; NMeChg = CN[C@H](C(=O)O)C1CCCCC1; NMeF = CN[C@@H](Cc1ccccc1)C(=O)O; NMeD = CN[C@@H](CC(=O)O)C(=O)O; NMeL = CN[C@@H](CC(C)C)C(=O)O; NMeNva = CCC[C@H](NC)C(=O)O; NMeV = CN[C@H](C(=O)O)C(C)C; d(β3hA) = C[C@@H](N)CC(=O)O; Morpholide = C1CN(*)CCO1; Ac5c = NC1(C(=O)O)CCCC1; Sar = CNCC(=O)O
Each item that follows carries a reported IC50.

{"columns": ["Compound", "IC50 / nM"],
 "data": [
  ["CCC[C@H]1C(=O)N[C@@H]([C@@H](C)CC)C(=O)N(C)CC(=O)N(C)CC(=O)N(C)[C@@H](CC2CCCC2)C(=O)N(C)CC(=O)N[C@@H](CCc2ccc(C(F)(F)F)c(Cl)c2)C(=O)N(C)[C@@H](Cc2cccnc2)C(=O)NC2(CCCC2)C(=O)N(C)[C@@H](C2CCCCC2)C(=O)N(C)[C@H](C(=O)N2CCOCC2)CC(=O)N1C [Compound 1937] ([NMeNva]I[Sar][Sar][NMeAla(cPent)][Sar][hPhe(3-Cl-4-CF3)][NMe3Pal][Ac5c][NMeChg][NMeD]-Morpholide; lactam N-11)", 3.1],
  ["CC[C@H](C)[C@@H]1NC(=O)[C@H](CC(C)C)N(C)C(=O)C[C@@H](C)NC(=O)[C@H](C(C)C)N(C)C(=O)[C@H](Cc2ccccc2)N(C)C(=O)[C@H](CC(C)C)N(C)C(=O)[C@H](CCc2ccc(C(F)(F)F)cc2)NC(=O)CN(C)C(=O)[C@H](Cc2ccc(Cl)cc2)N(C)C(=O)CN(C)C(=O)CN(C)C1=O [Compound 124] (cyclo(I[Sar][Sar][NMePhe(4-Cl)][Sar][hPhe(4-CF3)][NMeL][NMeF][NMeV][d(β3hA)][NMeL]))", 140]
]}

###

target: protein-protein interaction between Kras and SOS1 (biotin-tagged human Kras loaded with GDP, His-tagged human SOS1) (Homo sapiens (Human), UniProt P01116, G12D); assay: Protein-protein interaction inhibition between Kras and SOS1 (KrasG12D-SOS PPI) using AlphaScreen; type: biochemical; settings: AlphaScreen; biotin-tagged human Kras loaded with GDP, His-tagged human SOS1; read-out: KRAS G12D-SOS PPI IC50;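 also: kras produced in E. coli, Ni-coupled donor beads and streptavidin acceptor beads, excitation 680 nm with emission detected at 520–620 nm via singlet oxygen transfer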
pIC50: −log10 of the molar value. Numbered stars: 1 amine (or outer) side, 2 acyl side, 3 side chain; on linkers, the order of the positions; unused ones are H or OH. Bridge positions count the residues as written; N and C are the ends. Square brackets hold non-standard residues; d marks the D form. Peptide text beside a SMILES is read from it. * marks the point of attachment. hPhe(3,5-F2-4-CF3) = N[C@@H](CCc1cc(F)c(C(F)(F)F)c(F)c1)C(=O)O; hPhe(3-Cl-4-CF3) = N[C@@H](CCc1ccc(C(F)(F)F)c(Cl)c1)C(=O)O; NMePhe(4-CF3) = CN[C@@H](Cc1ccc(C(F)(F)F)cc1)C(=O)O; Pro(trans-4-Ph) = O=C(O)[C@@H]1C[C@@H](c2ccccc2)CN1; hPhe(4-CF3) = N[C@@H](CCc1ccc(C(F)(F)F)cc1)C(=O)O; X25 = COc1ccc(C[C@@H](C(=O)[*:2])N(C)[*:1])cn1; NMePhe(4-Cl) = CN[C@@H](Cc1ccc(Cl)cc1)C(=O)O; NMePhe(4-Me) = CN[C@@H](Cc1ccc(C)cc1)C(=O)O; NMedβ3hAla = C[C@H](CC(=O)[*:2])N(C)[*:1]; NMeAla(cPent) = CN[C@@H](CC1CCCC1)C(=O)O; NMeGly(cPent) = CN[C@H](C(=O)O)C1CCCC1; Pro(4,4-F2) = O=C(O)[C@@H]1CC(F)(F)CN1; NMeGly(cBu) = CN[C@H](C(=O)O)C1CCC1; NMeCha = CN[C@@H](CC1CCCCC1)C(=O)O; Hyp = O=C(O)[C@@H]1C[C@@H](O)CN1; NMeChg = CN[C@H](C(=O)O)C1CCCCC1; NMeI = CC[C@H](C)[C@H](NC)C(=O)O; d(β3hL) = CC(C)C[C@@H](N)CC(=O)O; NMeD = CN[C@@H](CC(=O)O)C(=O)O; NMeL = CN[C@@H](CC(C)C)C(=O)O; NMeV = CN[C@H](C(=O)O)C(C)C; d(β3hA) = C[C@@H](N)CC(=O)O; NMeA = CN[C@@H](C)C(=O)O; Piperidide = C1CCN(*)CC1; Ac5c = NC1(C(=O)O)CCCC1; Aze = O=C(O)[C@@H]1CCN1; Aib = CC(C)(N)C(=O)O; Sar = CNCC(=O)O
Each item that follows carries a reported pIC50.

{"columns": ["Compound", "pIC50"],
 "data": [
  ["CC[C@H](C)[C@@H]1NC(=O)[C@H](CC2CCCC2)N(C)C(=O)C[C@@H](C(=O)N(C)C)N(C)C(=O)[C@H]([C@@H](C)CC)N(C)C(=O)C2(CCCC2)NC(=O)[C@@H]2CCCN2C(=O)[C@H](CCc2ccc(C(F)(F)F)c(Cl)c2)NC(=O)CN(C)C(=O)[C@H](Cc2ccc(C)cc2)N(C)C(=O)[C@@H]2CCN2C(=O)[C@H](C)N(C)C1=O [Compound 400] ([NMeAla(cPent)]I[NMeA][Aze][NMePhe(4-Me)][Sar][hPhe(3-Cl-4-CF3)]P[Ac5c][NMeI][NMeD]-NMe2; lactam N-11)", 9.07],
  ["CCO[C@@H]1C[C@H]2C(=O)NC3(CCCC3)C(=O)N(C)[C@@H](C3CCCC3)C(=O)N(C)[C@H](C)CC(=O)N(C)[C@@H](CC(C)C)C(=O)N[C@@H]([C@@H](C)CC)C(=O)N(C)[C@@H](C)C(=O)N3CC[C@H]3C(=O)N(C)[C@@H](Cc3ccc(C(F)(F)F)cc3)C(=O)N(C)CC(=O)N[C@@H](CCc3ccc(C(F)(F)F)c(Cl)c3)C(=O)N2C1 [Compound 640] (cyclo([Ac5c][NMeGly(cPent)][NMedβ3hAla][NMeL]I[NMeA][Aze][NMePhe(4-CF3)][Sar][hPhe(3-Cl-4-CF3)][Hyp](Et)))", 9.07],
  ["CC[C@H](C)[C@@H]1NC(=O)[C@H](CC(C)C)N(C)C(=O)C[C@@H](C)N(C)C(=O)[C@H](C(C)C)N(C)C(=O)C2(CCCC2)NC(=O)[C@@H]2CCCN2C(=O)[C@H](CCc2ccc(C(F)(F)F)c(Cl)c2)NC(=O)CN(C)C(=O)[C@H](CC2CCCCC2)N(C)C(=O)[C@@H]2CCN2C(=O)[C@H](C)N(C)C1=O [Compound 1800] (cyclo([Ac5c][NMeV][NMedβ3hAla][NMeL]I[NMeA][Aze][NMeCha][Sar][hPhe(3-Cl-4-CF3)]P))", 7.96],
  ["CC[C@H](C)[C@@H]1NC(=O)[C@H](CC2CCCCC2)N(C)C(=O)C[C@@H](C)NC(=O)[C@H](CC(C)C)N(C)C(=O)C(C)(C)NC(=O)[C@H](CC(C)C)N(C)C(=O)[C@H](CCc2ccc(C(F)(F)F)cc2)NC(=O)CN(C)C(=O)[C@H](Cc2ccc(Cl)cc2)N(C)C(=O)CN(C)C(=O)CN(C)C1=O [Compound 615] (cyclo([Aib][NMeL][d(β3hA)][NMeCha]I[Sar][Sar][NMePhe(4-Cl)][Sar][hPhe(4-CF3)][NMeL]))", 6.66],
  ["CC[C@H](C)[C@@H]1NC(=O)[C@H](CC(C)C)N(C)C(=O)C[C@@H](C(=O)N2CCCCC2)N(C)C(=O)[C@H](C2CCC2)N(C)C(=O)C2(CCCC2)NC(=O)[C@@H]2CCCN2C(=O)[C@H](CCc2ccc(C(F)(F)F)c(Cl)c2)NC(=O)CN(C)C(=O)[C@H](CC2CCCCC2)N(C)C(=O)[C@@H]2CCN2C(=O)[C@H](C)N(C)C1=O [Compound 672] ([NMeL]I[NMeA][Aze][NMeCha][Sar][hPhe(3-Cl-4-CF3)]P[Ac5c][NMeGly(cBu)][NMeD]-Piperidide; lactam N-11)", 8.60],
  ["CC[C@H](C)[C@@H]1NC(=O)[C@H](C(C)C)N(C)C(=O)C[C@@H](CC(C)C)NC(=O)[C@H](CC(C)C)N(C)C(=O)C2(CCCC2)NC(=O)[C@H](CC(C)C)N(C)C(=O)[C@H](CCc2ccc(C(F)(F)F)cc2)NC(=O)CN(C)C(=O)[C@H](Cc2ccc(Cl)cc2)N(C)C(=O)CN(C)C(=O)CN(C)C1=O [Compound 113] (cyclo([Ac5c][NMeL][d(β3hL)][NMeV]I[Sar][Sar][NMePhe(4-Cl)][Sar][hPhe(4-CF3)][NMeL]))", 6.55],
  ["CC[C@H](C)[C@@H]1NC(=O)[C@H](CC(C)C)N(C)C(=O)C[C@@H](C)N(C)C(=O)[C@H](C2CCCCC2)N(C)C(=O)C2(CCCC2)NC(=O)[C@@H]2CC(F)(F)CN2C(=O)[C@H](CCc2cc(F)c(C(F)(F)F)c(F)c2)NC(=O)CN(C)C(=O)[C@H](Cc2ccc(C(F)(F)F)cc2)N(C)C(=O)[C@@H]2CCN2C(=O)[C@H](C)N(C)C1=O [Compound 606] (cyclo([Ac5c][NMeChg][NMedβ3hAla][NMeL]I[NMeA][Aze][NMePhe(4-CF3)][Sar][hPhe(3,5-F2-4-CF3)][Pro(4,4-F2)]))", 8.08],
  ["CC[C@H](C)[C@@H]1NC(=O)[C@H](CC(C)C)N(C)C(=O)C[C@@H](C(=O)N2CCCCC2)N(C)C(=O)[C@H](C2CCCCC2)N(C)C(=O)C2(CCCC2)NC(=O)[C@H](Cc2ccc(OC)nc2)N(C)C(=O)[C@H](CCc2ccc(C(F)(F)F)c(Cl)c2)NC(=O)CN(C)C(=O)[C@H](CC2CCCCC2)N(C)C(=O)CN(C)C(=O)CN(C)C1=O [Compound 592] ([NMeL]I[Sar][Sar][NMeCha][Sar][hPhe(3-Cl-4-CF3)][X25][Ac5c][NMeChg][NMeD]-Piperidide; lactam N-11)", 7.59],
  ["CC[C@H](C)[C@@H]1NC(=O)[C@H](CC(C)C)N(C)C(=O)C[C@@H](C(=O)N2CCCCC2)N(C)C(=O)[C@H](C2CCCCC2)N(C)C(=O)C2(CCCC2)NC(=O)[C@@H]2C[C@@H](c3ccccc3)CN2C(=O)[C@H](CCc2ccc(C(F)(F)F)c(Cl)c2)NC(=O)CN(C)C(=O)[C@H](CC2CCCCC2)N(C)C(=O)[C@@H]2CCCN2C(=O)CN(C)C1=O [Compound 255] ([NMeL]I[Sar]P[NMeCha][Sar][hPhe(3-Cl-4-CF3)][Pro(trans-4-Ph)][Ac5c][NMeChg][NMeD]-Piperidide; lactam N-11)", 8.11]
]}
